- system under test: Albumin (Bos taurus)
- test: bovine serum albumin binders on microarray, profiling panel, artefact control for SMM control protein annotation, biochemical, small-molecule microarray, Alexa647 label, 635/667 nm fluorescence (AID 1118);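 note: score merges 667 nm emission intensity and signal-to-noise per printed compound spot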
- test conditions: BSA-A647 binding, fluorescence 635 nm, higher = more signal
Known composite z-score of a selection of compounds
Simply state the number, no unit and no words.

Please review the following examples before continuing.
| compound | composite z-score |
| --- | --- |
| CCOC(=O)[C@H](Cc1ccccc1)NC(=O)OC1CC(CCC2CC(CC)=NO2)OC2(CCCC(COC(=O)NCCC(C)C)O2)C1 (some centres undefined) | 0.459 |
| CCOC(=O)NN=C1C[C@@H](O)[C@@H](O)[C@@H]2[C@@H]3C(=O)N(c4cccc(Oc5ccccc5)c4)C(=O)[C@@H]3CC[C@H]12 | 0.52 |
| O=c1n(Cc2cc3c(cc2Cl)OCO3)c(=O)n2n1CC[C@@H]1C(=NOCc3ccccc3)[C@H]3O[C@H]3[C@@H](O)[C@@H]12 | 0.0524 |
| COC(=O)CC=C[C@@H](C)[C@@H](C=NOC(C)CN1CCCc2nc(C)c(C)cc21)OC (some centres undefined) | 0.0374 |
| O=C1C[C@@H](O)[C@@H](O)[C@@H]2[C@@H]3C(=O)N(C[C@@H]4CCCO4)C(=O)[C@@H]3CC[C@@H]12 | -0.0039 |

## Input Look up composite z-score with Albumin (Bos taurus) for this compound: CCOC(=O)[C@H](CC(C)C)NC(=O)CCC1CC(OC(=O)NCCc2ccc(F)cc2)CC2(CCCC(COC(=O)NCCc3ccccc3OC)O2)O1 (some centres undefined)
## Output 0.788

## Input composite z-score of `CCCNC(=O)OC[C@H]1O[C@H](CCON=Cc2ccc(C(=O)N3[C@H](c4ccc(C)cc4)[C@@H](C)CC[C@H]3C(=O)OC)cc2)C=C[C@@H]1Oc1ccc(OC)cc1` on Albumin (Bos taurus)?
## Output 0.315

## Input # value lookup — system Albumin (Bos taurus), readout composite z-score, item `CO[C@H]1COC(=O)[C@H](C)NC(=O)[C@@H](C)COC(=O)[C@H]2CCCN2C(=O)CC=C[C@H]1C`
## Output -0.74

## Input Find composite z-score (Albumin (Bos taurus)) for the entry `Cc1ccc(S(=O)(=O)OC[C@H]2CN3[C@H](c4ccc(Br)cc4)[C@@H](C)CC[C@H]3C(=O)O2)cc1`
## Output 0.122

----------
- test: HepG2 liver cancer cell viability effects, profiling panel, resazurin fluorescence, 24 h, PK04 Diversity Set (AID 1172); note: test concentration not given here
- test conditions: higher = more signal
property name: z-score
Respond numerically, and do not add a unit to the figure.

| molecule | z-score |
| --- | --- |
| CCOC(=O)[C@H](CC(C)C)NC(=O)CCC1CC(OC(=O)NCc2cccc3ccccc23)CC2(CCCC(COC(=O)NCCc3ccc(Cl)cc3)O2)O1 (some centres not stated) | 0.568 |
| O=C1[C@H]2[C@H]3[C@H](O)[C@H](O)CC(=NOC[C@@H](O)COCc4ccco4)[C@@H]3CC[C@H]2C(=O)N1C[C@@H]1CCCO1 | 0.188 |
| Cc1ccc(S(=O)(=O)N[C@H]2COC(=O)CC=C[C@H](C)[C@@H](NS(=O)(=O)c3ccc(C)cc3)COC(=O)CC=C[C@@H]2C)cc1 | -0.0933 |
| CCOC(=O)[C@H](CC(C)C)NC(=O)CCC1CC(OC(=O)NCc2cccc3ccccc23)CC2(CCCC(COC(=O)NCCOC)O2)O1 (some centres not stated) | -0.0621 |
| C#CCCCON=C1[C@H]2CCn3c(=O)n(C)c(=O)n3[C@H]2[C@H](O)[C@@H]2O[C@H]12 | -1.33 |

## Input Form field: reported z-score of `CCO[C@H](c1cc(OC)cc([N+](=O)[O-])c1OC)[C@H](C)C=CCC(=O)OC`
## Output -0.0508

## Input For CCOC(=O)[C@H](Cc1ccccc1)NC(=O)OC1CC(CCC2CC(CC)=NO2)OC2(CCCC(COC(=O)NCCC(C)C)O2)C1 (some centres not stated) , what is its reported z-score?
## Output 0.239

----------
- system under test: NADPH oxidase 2 (Homo sapiens)
- test: NOX2-dependent H2O2 signal modulators, primary screen, NOX inhibitor project, cell-based, HEK293-NOX2, PMA-stimulated, Amplex Red fluorescence (AID 1159); note: test concentration not given here
- test conditions: 45 min, higher = more signal, called active from +8 up or from −8 down
Calls of active or inactive are those of the source.
property name: z-score

| compound | system under test | z-score |
| --- | --- | --- |
| CCc1cc2c(nc1CC)CCN(CCC(C)=NOC[C@H]1O[C@H](c3ccccc3)C=C[C@@H]1Oc1ccc(OC)cc1)C2 | NADPH oxidase 2 (Homo sapiens) | -1.83 (inactive) |
| CCOC(=O)[C@H](CC(C)C)NC(=O)CCC1CC(OC(=O)NCc2cccc3ccccc23)CC2(CCCC(COC(=O)NCc3cccc(C(F)(F)F)c3)O2)O1 (stereo not given in full) | NADPH oxidase 2 (Homo sapiens) | 0.176 (inactive) |
| CC(=O)O[C@H]1C2=CO[C@H](C)[C@H]3[C@H]4C5=C([C@H](O)[C@H]6O[C@H]6C5=O)[C@H](OC4C)[C@@]23C(=O)[C@@H]2O[C@@H]21 (stereo not given in full) | NADPH oxidase 2 (Homo sapiens) | -0.717 (inactive) |

## Input Fill in: z-score of `CO[C@@H]1C=CCC(=O)N[C@@H](C)C(=O)OC[C@@H](OC)[C@H](C)CCCC(=O)OC[C@H]1C` is ___
## Output 0.57 (inactive)

## Input GET /values?readout=z-score&item= `O=c1n(Cc2cc3c(cc2Cl)OCO3)c(=O)n2n1CC[C@@H]1C(=NOC[C@@H](O)COCc3ccco3)[C@H]3O[C@H]3[C@@H](O)[C@@H]12`
## Output 0.0338 (inactive)

----------
- test: PSAC antagonists in infected red cells, primary screen, cell-based, P. falciparum Indochina, OD700, 18 h (AID 1157)
- test conditions: P. falciparum Indochina infected erythrocytes, osmotic lysis OD700, 18 h; higher = more signal, called active from +8 up or from −8 down
Returns one of met or not met; met when z-score is >= -0.4.

Look over these answered cases.
| compound | class assignment |
| --- | --- |
| CC(C)CON=C1C[C@@H](O)[C@@H](O)[C@@H]2[C@@H]3C(=O)N(c4ccc(F)cc4F)C(=O)[C@@H]3CC[C@H]12 | not met |
| CC1O[C@H]2C3=C(C(=O)[C@@H]4O[C@@H]4[C@H]3O)[C@@H]1C1[C@@H](C)OC=C3[C@H](O)C4O[C@@H]4C(=NOCc4ccccc4)[C@]312 (stereo partly drawn) | met |
| CC(C)=NO[C@H](C)c1cn([C@H](CO)Cc2ccccc2)nn1 | met |

## Input API: above_or_equal(metric=z-score, cutoff=-0.4) for item `CON=C1[C@H]2CCn3c(=O)n(-c4ccccc4)c(=O)n3[C@H]2[C@H](O)[C@@H]2O[C@H]12`
## Output not met

## Input Determine whether measured z-score meets or exceeds -0.4 for `COc1ccc(O[C@H]2C=C[C@@H](c3ccccc3)O[C@@H]2CON=C(C)CCN2CCc3nc(-c4ccccc4)c(-c4ccccc4)cc3C2)cc1`
## Output met

## Input // inclusive: z-score at least -0.4? input: `O=C1[C@H]2[C@H]3[C@H](O)[C@H](O)CC(=NOCc4ccccc4)[C@@H]3CC[C@H]2C(=O)N1c1ccc(F)cc1F`
## Output not met

## Input Hello, I need to know if `CC(C)[C@@H](OCc1ccccc1)[C@H](C)C=NOC[C@@H](O)COCc1ccco1` has measured z-score not below -0.4. Thanks!
## Output met

## Input Please check the record `CC[C@@H](c1ccccc1)n1c(=O)n2n(c1=O)[C@H]1[C@H](O)[C@@H]3O[C@@H]3C(=NOC[C@@H](O)COCc3ccco3)[C@H]1CC2` and state if its z-score is at or above -0.4.
## Output met

----------
- test: S. cerevisiae growth modulation with rapamycin, primary screen, strain BY4716, OD600, 96 h (AID 1091); note: test concentration not given here
- test conditions: higher = more signal, called active from +8 up or from −8 down
Class (required): determined from z-score; valid ranges are range 1: < -0.8; range 2: ≥ -0.8 and < 0.4; range 3: ≥ 0.4

Record excerpt, results attached:
| compound | class assignment |
| --- | --- |
| COC(=O)CC=C[C@@H](C)[C@@H](C=NOC[C@H]1O[C@H](c2ccccc2)C=C[C@@H]1Oc1ccc(OC)cc1)OC | range 3 |
| O=C1CCCC=C1C(CCc1ccccc1)OC(=O)c1ccc(Br)cc1 (stereo not given) | range 1 |
| C#CCCCON=C1[C@H]2CCn3c(=O)n(-c4ccccc4)c(=O)n3[C@H]2[C@H](O)[C@@H]2O[C@H]12 | range 1 |

## Input Sort into band: `CC(C)=CCCC(C)=CCON=C1C[C@@H](O)[C@@H](O)[C@@H]2[C@@H]3C(=O)N(Cc4ccccc4)C(=O)[C@@H]3CC[C@@H]12`
## Output range 2

## Input Which bin should I file `CO[C@H]1COC(=O)CC=C[C@H](C)COC(=O)[C@@H](C)NC(=O)CC=C[C@@H]1C` under?
## Output range 1

## Input Please indicate the class for `COc1cccc([C@H]2Oc3ccc(OC)cc3C(=NO[C@@H](C)c3cn([C@H](CO)Cc4ccccc4)nn3)[C@@H]2O)c1` based on its z-score.
## Output range 2

## Input Band assignment needed for `C=CC[C@@H]1C=C[C@H](ON=C2[C@H]3CCn4c(=O)n(-c5ccccc5)c(=O)n4[C@H]3[C@H](O)[C@@H]3O[C@H]23)[C@@H](CO)O1` please.
## Output range 3

## Input Category of `CO[C@H]1COC(=O)CC=C[C@H](C)[C@@H](OC)COC(=O)[C@@H](C)NC(=O)CC=C[C@@H]1C` , please.
## Output range 1

## Input For CCOC(=O)[C@H](Cc1ccccc1)NC(=O)OC1CC(CCC2CC(CC)=NO2)OC2(CCCC(COC(=O)NCCC(C)C)O2)C1 (stereo not given in full) , which z-score bin applies?
## Output range 2

## Input Textbook exercise: identify the category of the compound given here, `COC(=O)[C@@H]1CC[C@H](C)[C@@H](c2ccc(C)cc2)N1C(=O)c1ccc(C=NO[C@@H]2O[C@H](COC(C)=O)[C@@H](OC(C)=O)[C@H](OC(C)=O)[C@H]2OC(C)=O)cc1` , according to its measured value.
## Output range 3

## Input Into which bin does this compound go? `COC(=O)CC=C[C@@H](C)[C@@H](C=NO[C@@H](C)c1cc(-c2c(C)cc(C)cc2C)no1)NS(=O)(=O)c1ccc(C)cc1`
## Output range 3

## Input Sort into band: `CC(C)CON=C1C[C@@H](O)[C@@H](O)[C@@H]2[C@@H]3C(=O)N(C4CCCCC4)C(=O)[C@@H]3CC[C@@H]12`
## Output range 3

## Input Place this compound in its band: `CC(C)=CCCC(C)=CCON=C1C[C@@H](O)[C@@H](O)[C@@H]2[C@@H]3C(=O)N(c4ccc(F)cc4F)C(=O)[C@@H]3CC[C@@H]12`
## Output range 2

## Input Category of O=C1OCCC=C1C(O)CCc1ccccc1 (stereo not given) , please.
## Output range 2
